System: Hep3B
Assay: relative cell viability (CellTiter-Glo), compound alone (fraction); higher = more viable cells (less growth inhibition)
Conditions: cabozantinib 0 µM; 4 days
In all, about 1,900 compounds were measured (“relative cell viability (CellTiter-Glo), compound alone”: median about 1, lowest 2% from about 0.16 on). Many of the other results were omitted from the sample, so the lowest values are more common in it than they were.
Reported Endpoint: relative cell viability

# annotated cases, reported relative cell viability shown
NC(=O)CCCSc1nc(N)nc(-c2c(Cl)cc3c4c(cccc24)COC3)n1 = 0.19
COc1cc([C@@H]2c3cc4c(cc3[C@@H](O[C@@H]3O[C@@H]5CO[C@@H](c6cccs6)O[C@H]5[C@H](O)[C@H]3O)[C@H]3COC(=O)[C@H]23)OCO4)cc(OC)c1O [Teniposide] = 0.113
Cc1[nH]c2ccccc2c1CCNC(=O)c1cccs1 = 1.19
O=C(NCC1(c2nc(-c3ccccc3)cs2)CCOCC1)c1cccc(-c2noc(C(F)(F)F)n2)c1 = 1.1
Cc1ccc(NC(=O)c2ccc(CN3CC[C@H](N(C)C)C3)c(C(F)(F)F)c2)cc1Nc1nccc(-c2cncnc2)n1 = 1.13
CCCCc1nc2cc(/C=C/C(=O)NO)ccc2n1CCN(CC)CC [Pracinostat (SB939)] = 0.155

// each compound listed below needs its relative cell viability
1. Cn1nc(C(C)(C)C)cc1C(=O)N[C@@H](Cc1cccc(Cl)c1)C(=O)NCC#N
2. CN(C)Cc1ccc(S(=O)(=O)n2ccc(/C=C/C(=O)NO)c2)cc1
3. O=C1NC(=O)C(c2cnc3ccccn23)=C1c1cn2c3c(cc(F)cc13)CN(C(=O)N1CCCCC1)CC2
4. Cc1[nH]c2ccccc2c1CCNCc1ccc(/C=C/C(=O)NO)cc1
5. Cc1nc(-c2cn3c(n2)-c2ccc(-c4cnn(C(C)(C)C(N)=O)c4)cc2OCC3)n(C(C)C)n1

stdout:
1.15
0.781
1.28
0.12
1.01

// each compound listed below needs its relative cell viability
1. Cc1cc(C)c(CNC(=O)c2cc(-c3ccc(N4CCN(C)CC4)nc3)cc3c2c(C)cn3C(C)C)c(=O)[nH]1
2. CCn1cc(NC(=S)Nc2cc(Cl)ccc2OC)c(C(N)=O)n1
3. CCOC(=O)Nc1cc(-c2ccc(C)c(NS(C)(=O)=O)c2)nn2c(C)nnc12
4. CO[C@H]1C[C@@H]2CC[C@@H](C)[C@@](O)(O2)C(=O)C(=O)N2CCCC[C@H]2C(=O)O[C@H]([C@H](C)C[C@@H]2CC[C@@H](OC(=O)C(C)(CO)CO)[C@H](OC)C2)CC(=O)[C@H](C)/C=C(\C)[C@@H](O)[C@@H](OC)C(=O)[C@H](C)C[C@H](C)/C=C/C=C/C=C/1C

stdout:
[1.08, 1.44, 0.851, 1.04]

Entry source: the supplement of paper PMC9399229
